Consider compounds characterized by their pKi with Sodium-dependent serotonin transporter (Rattus norvegicus).
Sequence (P31652 whole entry): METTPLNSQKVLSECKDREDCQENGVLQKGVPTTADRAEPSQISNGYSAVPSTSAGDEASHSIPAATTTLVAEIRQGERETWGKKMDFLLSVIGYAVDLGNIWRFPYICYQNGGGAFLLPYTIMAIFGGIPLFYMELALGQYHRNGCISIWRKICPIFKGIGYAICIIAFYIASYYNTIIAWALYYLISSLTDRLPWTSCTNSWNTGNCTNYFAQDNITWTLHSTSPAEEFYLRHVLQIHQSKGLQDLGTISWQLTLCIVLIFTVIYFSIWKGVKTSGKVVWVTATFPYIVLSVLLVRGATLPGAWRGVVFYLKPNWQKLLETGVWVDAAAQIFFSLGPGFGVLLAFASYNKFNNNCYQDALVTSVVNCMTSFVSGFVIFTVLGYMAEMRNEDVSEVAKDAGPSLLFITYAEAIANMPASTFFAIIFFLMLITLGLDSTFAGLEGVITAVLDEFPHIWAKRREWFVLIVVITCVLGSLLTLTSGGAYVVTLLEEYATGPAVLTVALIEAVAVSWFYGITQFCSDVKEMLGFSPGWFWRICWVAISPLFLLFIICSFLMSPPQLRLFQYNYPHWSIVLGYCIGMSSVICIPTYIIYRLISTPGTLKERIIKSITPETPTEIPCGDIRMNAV
Give bare numbers, as −log10 of the molar value.

Sample records with pKi:
O[C@]1(c2ccc(Cl)cc2)c2ccccc2C2=NCCN21 : 6.57
COC(=O)[C@H]1[C@@H](c2ccc(I)cc2)C[C@@H]2CC[C@H]1N2C : 9.00

In plain terms, NCCc1ccc(O)cc1 has a documented pKi of 5.81

====

target-or-system: Sodium-dependent dopamine transporter (Rattus norvegicus)
Define the label as t when Ki is strictly less than 2 µM and as f in all remaining cases.

CN[C@@H](C)Cc1ccc2c(c1)OCO2 [DL-(3,4-Methylenedioxy)methamphetamine] : t

Problem: Input NCCc1ccc(O)cc1 ; condition: Ki strictly below 2 µM. Does it hold?
Solution: t

Problem: Input CC(C)(N)Cc1ccc(Cl)cc1 [CAS_461-78-9] ; condition: Ki strictly below 2 µM. Does it hold?
Solution: f

====

Consider compounds characterized by their Ki with UniProtKB Q9JIA2.
One number for each entry, in nM.

For each of the items listed, what is its Ki?
1. C[C@H](N)Cc1ccccc1
2. CC(C)(N)Cc1ccccc1
3. c1ccc(CCCN2CCN(CCOC(c3ccccc3)c3ccccc3)CC2)cc1

Solution:
1: 38.9; 2: 244; 3: 277

For each of the items listed, what is its Ki?
1. CN1[C@H]2CC[C@@H]1[C@@H](C(=O)N1CCCC1)[C@@H](c1ccc(I)cc1)C2
2. NCCc1ccc(O)c(O)c1
3. CC(C)(N)Cc1ccc(Cl)cc1
4. CN[C@@H](C)[C@H](O)c1ccccc1 [Ephedrine,(-)]

Solution:
1. 19.5
2. 40.3
3. 451
4. 225

For each of the items listed, what is its Ki?
1. NCCc1ccc(O)cc1
2. NC1=NCC(c2ccccc2)O1 (stereo unspecified)
3. CN[C@@H](C)Cc1ccc2c(c1)OCO2
4. COC(=O)[C@H]1[C@@H](c2ccc(I)cc2)C[C@@H]2CC[C@H]1N2C

Solution:
72.5
54.5
462
5.89

====

Answer each item with its documented pKi.
target-or-system: Norepinephrine transporter (Rattus norvegicus, UniProt Q9JIA2)
One number for each entry, as −log10 of the molar value.

Sample records with pKi:
NCCc1c[nH]c2ccc(O)cc12 [[3H]-5-HT] : 5.52
NCC(O)c1ccc(O)c(O)c1 (stereo not drawn) [Noradrenaline,(+)] : 7.19

Please look at the following molecule next.
In plain terms, O[C@]1(c2ccc(Cl)cc2)c2ccccc2C2=NCCN21 [Mazanor] has a documented pKi of 8.54

====

Consider compounds characterized by their Ki with Sodium-dependent dopamine transporter (Rattus norvegicus).
Numbers only, in nM.

CN[C@@H](C)[C@H](O)c1ccccc1 [Ephedrine,(-)] : 4400
COC(=O)[C@H]1[C@@H](c2ccc(I)cc2)C[C@@H]2CC[C@H]1N2C : 0.83
COC(=O)C1C2CC[C@H](C[C@@H]1c1ccc(N)cc1)N2C (stereo partly specified) : 2.15
O[C@]1(c2ccc(Cl)cc2)c2ccccc2C2=NCCN21 : 25.9
NCC(O)c1ccc(O)c(O)c1 (stereo not drawn) [Noradrenaline,(+)] : 357

Please look at the following compound next.
In plain terms, NC1=NCC(c2ccccc2)O1 (stereo unspecified) has a documented Ki of 216

====

Consider compounds characterized by their Ki with Sodium-dependent dopamine transporter (Rattus norvegicus, UniProt P23977).
Sequence (P23977 whole entry): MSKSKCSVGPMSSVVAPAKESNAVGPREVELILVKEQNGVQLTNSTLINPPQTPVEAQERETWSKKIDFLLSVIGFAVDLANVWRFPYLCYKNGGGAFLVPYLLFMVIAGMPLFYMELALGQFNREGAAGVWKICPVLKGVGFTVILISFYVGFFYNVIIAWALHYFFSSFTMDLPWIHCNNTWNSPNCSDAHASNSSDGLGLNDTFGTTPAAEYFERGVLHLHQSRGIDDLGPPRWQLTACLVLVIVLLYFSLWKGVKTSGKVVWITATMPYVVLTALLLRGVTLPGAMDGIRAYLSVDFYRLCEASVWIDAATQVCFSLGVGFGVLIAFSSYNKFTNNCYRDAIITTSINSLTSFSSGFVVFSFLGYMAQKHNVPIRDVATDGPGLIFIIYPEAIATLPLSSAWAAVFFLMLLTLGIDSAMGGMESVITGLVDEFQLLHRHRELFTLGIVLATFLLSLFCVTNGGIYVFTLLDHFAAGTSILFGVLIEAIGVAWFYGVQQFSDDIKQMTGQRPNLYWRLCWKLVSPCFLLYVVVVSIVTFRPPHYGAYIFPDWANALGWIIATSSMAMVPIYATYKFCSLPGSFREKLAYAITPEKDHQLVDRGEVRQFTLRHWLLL

NCCc1c[nH]c2ccc(O)cc12 [[3H]-5-HT] : 2700 nM
CC(C)(N)Cc1ccccc1 [2-methyl-1-phenylpropan-2-amine] : 1580 nM

Please look at the following compound next.
In plain terms, CCNC(C)Cc1cccc(C(F)(F)F)c1 (stereo not drawn) [NSC_3337] has a documented Ki of > 10000 nM

Values from BindingDB's records for doi:10.1002/1098-2396(20010101)39:1
